# TARGET_OR_TEST_SYSTEM: HLA-B*27:05
# EXPERIMENT_NOTES: IEDB peptide-MHC binding, purified MHC/direct/fluorescence; filed as Kd, often an IC50 or EC50 that approximates it; bounds were set here for any values at or beyond the usual limits of such assays
# STATED_CONDITIONS: source organism: Escherichia coli O157:H7
pKd: −log10 of the molar value.
MEASUREMENT_TYPE: pKd

>  <RESIDUE_CODES>
ETIGLVRAL

>  <TARGET_OR_TEST_SYSTEM>
HLA-B*27:05

>  <pKd>
≤ 4.70

$$$$

Continue with the sequence presented below.
Input line: # get_value(readout='pKd', item= `ADLRFASEF` )
Output line: ≤ 4.70
